- assayTarget: UniProt:P14842
Where a name gives a salt, the structure may show the parent alone.
quantityMeasured: IC50 (nM)
Write it as a number; the unit nM goes unstated.

Some molecules with recorded IC50:
* C[C@H](N)Cn1ncc2ccc3c(c21)N(C)C(=O)CO3 [Example 3, hydrochloride] | 7.6
* C[C@H](N)Cn1ncc2ccc3c(c21)NC(=O)CO3.Cl [Example 2, hydrochloride] | 3.5

Moving on to the next molecule.
Q) Quick one: IC50 for C[C@H](N)Cn1ncc2ccc3c(c21)N(C)CCO3.O=C(O)/C=C/C(=O)O [Example 1, fumarate] ?
A) 1
